Biological target: MNK1a (MKNK1 isoform a) (UniProt Q9BUB5-2 Q9BUB5-2:1-424)
Sequence (Q9BUB5 other isoform, or with tags, fused parts or gaps): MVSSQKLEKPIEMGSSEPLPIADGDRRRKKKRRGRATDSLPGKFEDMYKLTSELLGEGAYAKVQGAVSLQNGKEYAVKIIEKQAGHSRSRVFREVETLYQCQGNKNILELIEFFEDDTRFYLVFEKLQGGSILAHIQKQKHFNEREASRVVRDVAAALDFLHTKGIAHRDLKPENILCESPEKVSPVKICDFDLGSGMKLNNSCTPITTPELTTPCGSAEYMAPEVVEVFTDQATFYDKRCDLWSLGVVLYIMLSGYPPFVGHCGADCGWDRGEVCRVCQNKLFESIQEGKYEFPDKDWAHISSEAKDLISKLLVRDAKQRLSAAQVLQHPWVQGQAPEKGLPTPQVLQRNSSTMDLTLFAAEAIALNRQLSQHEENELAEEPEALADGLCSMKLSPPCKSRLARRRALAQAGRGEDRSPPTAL
Test: ELONA; BSA-free aptamer buffer, 37 C; also detected in apta-western
Settings: tags: GST fusion; label: biotin; G4 (parallel, five-tiered from 3- and 2-tier quadruplexes)
Measured property: pKd
# reply with the number alone; pKd is -log10 of concentration in mol/L

q: Field request: pKd | item: TGGGGTGGGCGGGCGGGGGTGGGGGTGGT (structured_DNA) [apMNKQ2]
a: 7.18
